Recorded IC50 values (UniProtKB O15054) are given below.
Sequence (O15054 whole entry): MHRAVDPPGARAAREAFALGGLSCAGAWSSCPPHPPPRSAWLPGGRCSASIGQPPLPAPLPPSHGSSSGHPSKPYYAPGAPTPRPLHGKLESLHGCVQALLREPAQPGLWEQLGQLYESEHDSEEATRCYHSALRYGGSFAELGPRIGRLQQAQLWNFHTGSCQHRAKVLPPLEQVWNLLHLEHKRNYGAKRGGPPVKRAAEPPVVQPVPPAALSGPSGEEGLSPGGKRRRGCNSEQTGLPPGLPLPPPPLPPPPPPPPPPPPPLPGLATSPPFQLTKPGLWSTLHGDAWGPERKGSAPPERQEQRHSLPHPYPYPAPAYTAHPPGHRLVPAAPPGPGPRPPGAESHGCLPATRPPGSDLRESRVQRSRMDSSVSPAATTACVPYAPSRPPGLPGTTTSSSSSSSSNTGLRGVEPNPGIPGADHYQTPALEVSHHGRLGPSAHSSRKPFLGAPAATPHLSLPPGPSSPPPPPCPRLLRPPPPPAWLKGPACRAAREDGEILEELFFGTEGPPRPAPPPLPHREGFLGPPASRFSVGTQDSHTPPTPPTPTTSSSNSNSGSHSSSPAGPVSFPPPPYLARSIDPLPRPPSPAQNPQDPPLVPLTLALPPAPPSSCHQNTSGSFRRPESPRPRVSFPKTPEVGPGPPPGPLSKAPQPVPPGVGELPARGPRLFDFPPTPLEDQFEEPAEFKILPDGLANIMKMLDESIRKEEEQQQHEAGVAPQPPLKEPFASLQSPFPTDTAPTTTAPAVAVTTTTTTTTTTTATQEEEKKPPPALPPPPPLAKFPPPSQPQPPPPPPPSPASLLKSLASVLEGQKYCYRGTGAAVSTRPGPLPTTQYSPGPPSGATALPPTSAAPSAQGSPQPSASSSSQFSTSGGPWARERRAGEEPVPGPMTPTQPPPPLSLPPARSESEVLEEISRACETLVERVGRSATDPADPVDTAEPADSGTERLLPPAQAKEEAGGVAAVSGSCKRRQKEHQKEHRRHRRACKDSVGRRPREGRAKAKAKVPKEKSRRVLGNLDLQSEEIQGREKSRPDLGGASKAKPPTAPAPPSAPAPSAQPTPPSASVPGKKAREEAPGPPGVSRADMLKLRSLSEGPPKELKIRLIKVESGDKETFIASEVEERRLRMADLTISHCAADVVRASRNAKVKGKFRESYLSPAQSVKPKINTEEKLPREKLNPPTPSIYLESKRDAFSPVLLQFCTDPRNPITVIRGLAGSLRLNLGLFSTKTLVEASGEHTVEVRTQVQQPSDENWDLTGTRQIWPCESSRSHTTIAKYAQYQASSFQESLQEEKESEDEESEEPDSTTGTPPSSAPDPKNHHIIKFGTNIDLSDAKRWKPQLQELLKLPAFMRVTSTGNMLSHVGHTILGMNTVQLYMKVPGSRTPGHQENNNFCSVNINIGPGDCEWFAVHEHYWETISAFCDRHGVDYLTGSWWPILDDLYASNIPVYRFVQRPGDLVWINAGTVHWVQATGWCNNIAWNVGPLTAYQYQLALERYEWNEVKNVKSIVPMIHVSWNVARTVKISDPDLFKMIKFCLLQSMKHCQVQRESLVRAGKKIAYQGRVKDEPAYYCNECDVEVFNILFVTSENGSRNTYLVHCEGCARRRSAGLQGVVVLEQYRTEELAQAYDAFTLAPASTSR
Answers are plain numbers, in µM.

Short answer for CCN(CC)CCCCNCc1cc(C(=O)O)ccn1 [Example 18] : IC50 was 27

Short answer for Nc1c(C(=O)O)ccnc1C(=O)O [Example 7, reference compound] : IC50 was 7.8

Short answer for CCN(CCN(C)C)C(=O)CNCc1cc(C(=O)O)ccn1 [Example 9] : IC50 was 4.1

Each molecule below has a recorded value; state its IC50.
1. Cc1cc(Cl)ccc1COc1ccnn1-c1cc(C(=O)O)ccn1 [Example 11]
2. O=C(O)c1ccncc1Nc1nn(CCN2CCC(F)(F)CC2)c2ccc(F)cc12 [Example 13]

Given back:
1. 0.28
2. 0.4
